- ASSAY_SYSTEM: T1, human Notch1 NRR_Avi_His recombinant protein (human, UniProt P46531 1434-1737)
- T1 construct: Secreted from CHO-PACE cells; cleaved at S1 into an N-terminal ~26 kDa half (LNR-A, B, C, HD1) and a C-terminal ~12 kDa half (HD2 and tag) that stay associated non-covalently; written here as one chain; also called recombinant human Notch1 NRR; human Notch1 NRR immunogen
- T1 sequence: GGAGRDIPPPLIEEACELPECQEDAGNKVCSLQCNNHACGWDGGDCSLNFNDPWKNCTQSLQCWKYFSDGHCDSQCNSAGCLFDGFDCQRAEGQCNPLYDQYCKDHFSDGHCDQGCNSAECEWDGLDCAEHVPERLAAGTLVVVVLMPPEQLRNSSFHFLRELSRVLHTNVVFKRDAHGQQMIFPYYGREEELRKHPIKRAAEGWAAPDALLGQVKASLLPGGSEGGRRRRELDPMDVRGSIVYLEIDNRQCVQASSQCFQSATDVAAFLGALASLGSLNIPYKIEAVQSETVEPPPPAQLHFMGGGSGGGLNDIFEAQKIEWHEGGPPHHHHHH
- ASSAY_METHOD_TEXT: SPR (Biacore T100), antibody captured by anti-human IgG-Fc, NRR_Avi_His as analyte, 1:1 Langmuir model
pKd: −log10 of the molar value.
Measured pKd, listed per entry for reference.

BINDER	pKd
humanized 438 VH1.1/VL1.0 (antibody, human IgG1, V domains shown) VH: EVQLVESGGGLVQPGGSLRLSCAASGFTFSSFAMAWVRQAPGKGLEWVASISYGGADTYYRDSVKGRFTISRDNAKNSLYLQMNSLRAEDTAVYYCAKDLPYYGYTPFVMDAWGQGTLVTVSS VL: DIQMTQSPSSLSASVGDRVTITCRASQRINTDLHWYQQKPGKAPKLLIYFASQTISGVPSRFSGSGSGTDFTLTISSLQPEDFATYYCQQSNSWPYTFGQGTKLEIK	7.66
humanized 438 VH1.1/VL1.3 (antibody, human IgG1, V domains shown) VH: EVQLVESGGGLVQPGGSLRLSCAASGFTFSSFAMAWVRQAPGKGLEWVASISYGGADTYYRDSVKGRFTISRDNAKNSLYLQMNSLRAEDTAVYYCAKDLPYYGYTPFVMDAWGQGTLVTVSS VL: DIQLTQSPSSLSASVGDRVTITCRASQRINTDLHWYQQKPGKAPKLLIYFASQTISGVPSRFSGSGSGTDFTLTISSLQPEDFATYYCQQSNSWPYTFGQGTKLEIK	8.74
rat 438-hIgG1 (antibody, V domains shown, also called r438-hIgG) VH: AVQLVESGGGLVQPGRSLKLSCTASGFTFSSFAMAWVRQAPTKGLEWVASISYGGADTYYRDSVKGRFTISRDNAKSSLYLQMDSLRSEDTSTYYCAKDLPYYGYTPFVMDAWGQGTSVTVSS VL: DIMLTQSPPTLSVTPGETISLSCRASQRINTDLHWYQQKPNESPRVLIKFASQTISGVPSRFSGSGSGTDFTLNINRVEPEDFSVYYCQQSNSWPYTFGAGTKLELK	8.36
humanized 438 VH1.1/VL1.8 (antibody, human IgG1, kappa, V domains shown, full chains (VH1.1)-hIgG1-3M and (VL1.8)-hkappa) VH: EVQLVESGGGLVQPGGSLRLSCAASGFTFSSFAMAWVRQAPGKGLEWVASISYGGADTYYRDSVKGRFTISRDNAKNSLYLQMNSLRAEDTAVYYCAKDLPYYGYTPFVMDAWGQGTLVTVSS VL: DIQMTQSPSSLSASVGDRVTITCRASQRINTDLHWYQQKPGKAPKVLIKFASQTISGVPSRFSGSGSGTDFTLTISSLQPEDFATYYCQQSNSWPYTFGQGTKLEIKR	8.68
